test system: KM12 colon; assay: NCI tumour cell line growth inhibition, 48 h
REPORTED_METRIC: TGI (µM)
Give your result in µM as a bare value.

Consider the reported TGI for these compounds:
> print(dat)
                                   compound  reported.value
1  CN(C)CCNc1ccc2c(=O)n(CCN(C)C)c(=O)n3c4ccc([N+](=O)[O-])cc4c(=O)c1c23            4.95
2  COC(=O)C1=C(C(=O)OC)C2(OC(C)=O)c3ccccc3-c3ccccc3C12 (stereo not given)            26.8
3  O=C(O)C1C(C(=O)Nc2ccc3c(c2)Cc2ccccc2-3)C2(Cl)C(Cl)=C(Cl)C1(Cl)C2(Cl)Cl (stereo not given)              39
4  CCCc1c(OC)c(=O)c2c(OC)cc(OC)c3c4c(OC)cc(OC)c5c(=O)c(OC)c(CCC)c(c1c23)c54            34.1
5    CC(=O)N1CC(Nc2ccc(OC(F)(F)F)cc2)=CC1=O            25.1
6  Cc1nc2sccn2c(=O)c1CCN1CCC(=C(c2ccc(F)cc2)c2ccc(F)cc2)CC1            27.4
7       OCCCN=NNc1ccc(-c2nc3ccccc3[nH]2)cc1            24.9
8  O=[N+]([O-])c1cccc2nc3ccccc3c(NCCc3cccc[n+]3[O-])c12           0.552

Read the next record carefully.
compound CCCCCCCC/C=C/CCCCCCCC1=NCC[N+]1(CCO)CCO , TGI observed: 3.61

====

test system: MOLT-4 leukemia; experiment: NCI tumour cell line growth inhibition, 48 h; in the data active = GI50 below about 0.43 µM; inactive = the rest
Please reply with one of these outcomes: active, inactive

> print(dat)
                                   compound     study.target  label.class
1  NC(CSC(c1ccccc1)(c1ccccc1)c1ccc(Cl)cc1)C(=O)O (stereo not given)  MOLT-4 leukemia     inactive
2  COc1cc(NCCCCN=C(N)NC(N)=NC(C)C)c2ncccc2c1  MOLT-4 leukemia     inactive
3  C(=C\c1n(Cc2ccc3ccccc3c2)c(-c2ccccc2)c(-c2ccccc2)[n+]1Cc1ccc2ccccc2c1)/c1ccccc1  MOLT-4 leukemia       active
4       OCCCN=NNc1ccc(-c2nc3ccccc3[nH]2)cc1  MOLT-4 leukemia     inactive
5       NC(=NCCCOc1ccc(Cl)cc1)Nc1ccc(Cl)cc1  MOLT-4 leukemia     inactive
6  O=C(OCc1ccccc1)N1CCN(/[N+]([O-])=N/Oc2ccc([N+](=O)[O-])cc2[N+](=O)[O-])CC1  MOLT-4 leukemia     inactive
7  CN(C)c1ccc(N=Cc2c([O-])ccc3ccccc23)cc1.[C-]#[O+].[C-]#[O+].[Ir]  MOLT-4 leukemia     inactive
8  CN(C)c1ccc(C(=C2C=CC(=[N+](C)C)C=C2)c2ccc(N(C)C)cc2)cc1 (tested in a mixture with another compound)  MOLT-4 leukemia       active

GET /call?item= Cc1nc2sccn2c(=O)c1CCN1CCC(=C(c2ccc(F)cc2)c2ccc(F)cc2)CC1 returns the recorded outcome of this test. inactive

GET /call?item= Cc1ccc(C2NC(=S)NC3=C2CCOc2c3ccc3ccccc23)cc1 (stereo not given) returns the recorded outcome of this test. inactive
